Items are presented alongside their recorded Percent Effect.
- System: Trypanosoma cruzi
- Assay: Trypanosoma cruzi phosphomannomutase and mannose-1-phosphate guanylyltransferase assay
- Assay type: functional
- Set-up: scale not given: direction of the effect not stated beside the values
- Experimental parameters: 10 µM
Unit % implied. Number only.

COc1cc(CNCc2c(C(C)C)nn(C)c2N(C)C)ccn1 ... 1.13
COCCNC(=O)[C@H]1CN(c2nnc(C)s2)C[C@H]2OCC[C@@H]12 ... -0.394
CCc1n[nH]c(C2CN(C(=O)c3nc(C)n4ccccc34)CCO2)n1 (stereo unspecified) ... -1.49
Cc1n[nH]c(C2CN(CC(=O)NCc3ccco3)CCO2)n1 (stereo unspecified) ... -5.36
CC(C)N1CCn2c(nc3cc(C(N)=O)ccc32)C1 ... 0.393

Let us examine a further case.
Give its Percent Effect value. Item: CCOCCCNC(=O)c1ccccc1S(C)(=O)=O
2.82

----------
Items are presented alongside their recorded Percent Effect.
- Target or test system: Chromo domain-containing protein 1 (Saccharomyces cerevisiae (strain ATCC 204508 / S288c) (Baker's yeast)) (UniProt P32657)
- Sequence (P32657 whole entry, the tested form may be a part): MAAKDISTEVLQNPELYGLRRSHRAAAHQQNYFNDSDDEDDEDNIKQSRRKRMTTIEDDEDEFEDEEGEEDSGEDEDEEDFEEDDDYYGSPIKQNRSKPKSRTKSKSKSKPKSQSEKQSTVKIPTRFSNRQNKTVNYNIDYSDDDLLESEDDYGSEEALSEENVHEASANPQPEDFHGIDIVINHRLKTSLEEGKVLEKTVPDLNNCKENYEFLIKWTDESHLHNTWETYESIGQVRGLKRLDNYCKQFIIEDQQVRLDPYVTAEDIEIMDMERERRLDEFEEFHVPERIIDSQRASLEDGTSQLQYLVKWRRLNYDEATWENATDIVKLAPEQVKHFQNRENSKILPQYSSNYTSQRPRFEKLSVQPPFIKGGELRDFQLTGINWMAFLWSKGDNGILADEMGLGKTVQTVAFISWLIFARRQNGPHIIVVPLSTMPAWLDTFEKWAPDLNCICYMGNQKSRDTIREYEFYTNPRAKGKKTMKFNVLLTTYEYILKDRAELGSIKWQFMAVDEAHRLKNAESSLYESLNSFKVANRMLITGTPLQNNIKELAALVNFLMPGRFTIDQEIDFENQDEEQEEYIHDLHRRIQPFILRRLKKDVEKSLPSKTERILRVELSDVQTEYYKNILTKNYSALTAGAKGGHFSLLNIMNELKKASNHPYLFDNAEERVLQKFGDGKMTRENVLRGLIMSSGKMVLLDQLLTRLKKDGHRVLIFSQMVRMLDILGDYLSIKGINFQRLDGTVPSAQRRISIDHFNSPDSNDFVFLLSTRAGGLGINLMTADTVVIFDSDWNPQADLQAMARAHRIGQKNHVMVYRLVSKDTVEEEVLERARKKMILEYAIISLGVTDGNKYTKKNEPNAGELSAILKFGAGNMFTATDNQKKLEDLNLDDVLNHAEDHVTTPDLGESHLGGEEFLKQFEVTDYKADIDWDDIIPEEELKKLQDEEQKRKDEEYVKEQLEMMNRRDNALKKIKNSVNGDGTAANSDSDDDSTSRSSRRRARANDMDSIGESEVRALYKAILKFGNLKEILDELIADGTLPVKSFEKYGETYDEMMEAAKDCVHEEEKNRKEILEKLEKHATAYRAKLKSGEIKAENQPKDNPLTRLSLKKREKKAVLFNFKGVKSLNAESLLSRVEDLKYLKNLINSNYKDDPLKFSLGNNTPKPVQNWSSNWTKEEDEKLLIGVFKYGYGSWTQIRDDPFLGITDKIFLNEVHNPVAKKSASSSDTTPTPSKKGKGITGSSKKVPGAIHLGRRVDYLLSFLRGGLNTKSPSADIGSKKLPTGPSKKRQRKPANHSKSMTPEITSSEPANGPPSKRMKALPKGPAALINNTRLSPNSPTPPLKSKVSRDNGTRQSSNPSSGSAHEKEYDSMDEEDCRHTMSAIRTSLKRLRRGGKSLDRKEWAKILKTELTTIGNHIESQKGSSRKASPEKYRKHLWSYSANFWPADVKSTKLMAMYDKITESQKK
- Assay: ScCHD-1 Enzyme Inhibition Assay; note: in the data most compounds retested in dose-response had high values
- Format: functional
- Design: scale not given: direction of the effect not stated beside the values
- Experimental parameters: 30 µM
Unit % implied. Number only.

Look over these answered cases.
Cc1nn(CCn2ccnc2-c2cc3n(n2)CCCNC3)c(C)c1Cl ... -7.41
CC(C)(C)C(=O)N1CCC(c2nc(O)cc(-c3ccccn3)n2)CC1 ... -8.6
CNc1oc(-c2ccc(OC)c(S(=O)(=O)N3CCCCC3)c2)nc1C#N ... -9.36
CC(=O)NCCc1cc(N2CCN(C(C)=O)CC2)nc(C2CC2)n1 ... -3.42
O=C(NCCN1CCC(c2cccs2)CC1)Nc1cccs1 ... -2.26

Give its Percent Effect value. Item: COc1ncccc1NC(=O)C1CCN(S(C)(=O)=O)CC1
-9.19

Give its Percent Effect value. Item: COc1c(CNCc2ccc(CN(C)C)cc2)c(C(C)C)nn1C
-1.54

----------
- Species: Homo sapiens
- Assay: To identify inhibition of the IFN signalling (Jak-Stat) pathway via expression of an eGFP reporter gene under the control of an IFN-stimulated response element (ISRE) containing MxA promoter.
- Type: functional
- Set-up: scale not given: direction of the effect not stated beside the values
- Experimental parameters: 30 µM
Items are presented alongside their recorded Percent Effect.
Unit % implied. Number only.

O=C(c1cc(C2CC2)on1)N1CC[C@]2(C[C@H](Oc3cccnc3)CO2)C1 ... -3.24
c1cnnc(N2CCCC(NCc3nnc(-c4ccco4)o3)C2)c1 (stereo unspecified) ... -0.0242
CC(=O)N1CCCN(C(=O)c2oc(Br)cc2C)CC1 ... 4.33
O=C(C1=CCCCC1)N1CCC2(CC1)COC(COc1ccccn1)C2 (stereo unspecified) ... -0.0236

Give its Percent Effect value. Item: O=C1O[C@@H]2CN(Cc3ccccc3)C[C@@H]2N1CCCN1CCOCC1
20

Give its Percent Effect value. Item: CC(C)c1n[nH]c(C2CN(C(=O)c3csnn3)CCO2)n1 (stereo unspecified)
-2.95

----------
Items are presented alongside their recorded Percent Effect.
- Target or test system: Chromo domain-containing protein 1 (Saccharomyces cerevisiae (strain ATCC 204508 / S288c) (Baker's yeast))
- Assay: ScCHD-1 Enzyme Inhibition Assay; note: in the data most compounds retested in dose-response had high values
- Assay type: functional
- Parameters: scale not given: direction of the effect not stated beside the values
- Experimental parameters: 30 µM
Unit % implied. Number only.

Cc1nc(CN2CCCC(CCc3ccc(F)cc3F)C2)c[nH]1 (configuration not stated) ... -1.62
CN(CCNC(=O)c1scnc1Cl)c1ccccc1 ... -6.98
CCS(=O)(=O)N1CCC2(CC1)CC(Oc1ccccn1)CO2 (configuration not stated) ... -7.08
Cc1nc(C2CCCN(C(=O)CCCn3ccnc3C)C2)no1 (configuration not stated) ... 5.19
c1cc(CNCC2OCCc3cn(CC4CCOCC4)nc32)ccn1 (configuration not stated) ... 1.56
Cc1cc(NCc2cc3n(n2)CCCN(S(C)(=O)=O)C3)ncn1 ... 0.638

Give its Percent Effect value. Item: Cn1ccnc1CN1CCN(Cc2cc(C#N)ccc2F)CC1
3.16

Cited source for all entries: ChEMBL document CHEMBL3988442
